# Percent Inhibition per entry
- Test system: J82
- Run Description: Cell panel screen (CellTiter-Glo)
- Assay type: cell-based, human
- Test Conditions: J82 (Urinary bladder), 20 micromolar, 72 hrs
Give just the numeric value; % need not be written.

COc1ccc2c(=O)c3c(O)cc(O)cc3oc2c1OC ... -8
O=C1CC(c2ccc(O)c(O)c2)Oc2cc(OC3OC(C(=O)O)C(O)C(O)C3O)cc(O)c21 (stereo not drawn) ... -6
COC(=O)C1OC(Oc2cc(O)c3c(=O)cc(-c4ccc(O)cc4)oc3c2)C(O)C(O)C1O (stereo not drawn) ... -5
O=c1c2ccc(O)c(O)c2oc2cccc(O)c12 ... -2
CC1(C)C=Cc2c(cc(O)c3c(=O)c4ccc(O)c(O)c4oc23)O1 ... 88

Now for another entry.
Measured Percent Inhibition of O=C1c2c(O)cc(O)cc2OC(c2ccc(O)cc2)C1c1c(O)cc(O)c2c(=O)cc(-c3ccc(O)c(O)c3)oc12 (stereo not drawn) : -5

----------
- Tested on: CCF-STTG1
- Run Description: Cell panel screen (CellTiter-Glo)
- Assay type: cell-based, human
- Test Conditions: CCF-STTG1 (Brain), 20 micromolar, 72 hrs
Cut-off 90% on Percent Inhibition, inclusive. At or above means fulfilled; below means not fulfilled.

Has "COc1cc(O)c2c(=O)c3cc(CC=C(C)C)c(O)c(O)c3oc2c1CC=C(C)C" a recorded Percent Inhibition greater than or equal to 90%?
not fulfilled

Has "CC(C)=CCc1c2c(c3oc4c(O)c(O)ccc4c(=O)c3c1O)C=CC(C)(C)O2" a recorded Percent Inhibition greater than or equal to 90%?
not fulfilled

Has "COc1cc(O)c2c(=O)c3cc4c(c(O)c3oc2c1CC=C(C)C)OC(C)(C)C=C4" a recorded Percent Inhibition greater than or equal to 90%?
not fulfilled

Has "CC(C)=CCC[C@@]1(C)C=Cc2c(O)c3c(c(CC=C(C)C)c2O1)O[C@]12C(=C[C@@H]4C[C@H]1C(C)(C)O[C@@]2(C/C=C(/C)C(=O)O)C4=O)C3=O" a recorded Percent Inhibition greater than or equal to 90%?
fulfilled

Has "CC(C)=CCc1c2c(c(O)c3c1O[C@]14C(=C[C@@H]5C[C@H]1C(C)(C)O[C@@]4(C/C=C(\C)CO)C5=O)C3=O)C=CC(C)(C)O2" a recorded Percent Inhibition greater than or equal to 90%?
fulfilled

Has CCOC1C2C(=O)c3c(O)c4c(c(CC=C(C)C)c3O[C@@]23[C@H]2C[C@@H]1C(=O)[C@]3(C/C=C(/C)C(=O)O)OC2(C)C)OC(C)(CCC=C(C)C)C=C4 (stereo partly shown) a recorded Percent Inhibition greater than or equal to 90%?
fulfilled

----------
- Tested on: C8166
- Run Description: Cell panel screen (CellTiter-Glo)
- Format: cell-based, human
- Test Conditions: C8166 (Leukemia), 20 micromolar, 72 hrs
# Percent Inhibition per entry
Give just the numeric value; % need not be written.

Worked cases, answers included:
CC(C)=CCc1c(O)cc2oc3cc(O)c(O)c(CC=C(C)C)c3c(=O)c2c1O ... 99
CC(C)=CCc1c2c(c(O)c3c(=O)c4c(CC=C(C)C)c(O)c(O)cc4oc13)C=CC(C)(C)O2 ... 96

Now for another entry.
Bench note, C8166: "COc1cc(O)c2c(=O)c3cc(CC=C(C)C)c(O)c(O)c3oc2c1CC=C(C)C" , Percent Inhibition reads 93
